# System: YHR087W
# Test: TOR pathway GFP reporter clone modulation in yeast – S. cerevisiae, GFP-tagged clone panel, flow cytometry (AID 504473);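 further: median GFP fluorescence of the cells measured by high-throughput flow cytometry; test concentration not given here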
# Settings: S. cerevisiae GFP-tagged strains, 3 h
Reported Property: GFP ratio to DMSO

# Compound Structure, Measured
data = [
    ("CNc1nc(N)c([N+](=O)[O-])c(Nc2ccccc2)n1", 0.827),
    ("CNc1nc(N)c([N+](=O)[O-])c(Nc2ccccc2OC)n1", 1.71),
    ("CO[C@H]1C[C@@H]2CC[C@@H](C)[C@@](O)(O2)C(=O)C(=O)N2CCCC[C@H]2C(=O)O[C@H]([C@H](C)C[C@@H]2CC[C@@H](O)[C@H](OC)C2)CC(=O)[C@H](C)/C=C(\\C)[C@@H](O)[C@@H](OC)C(=O)[C@H](C)C[C@H](C)/C=C/C=C/C=C/1C", 2.24),
    ("CNc1nc(N)c([N+](=O)[O-])c(Nc2cccc(F)c2)n1", 1.64),
    ("CNc1nc(N)c([N+](=O)[O-])c(Nc2cccc(Cl)c2)n1", 0.926),
]

###

# System: YKL119C
# Test: TOR pathway GFP reporter clone modulation in yeast – S. cerevisiae, GFP-tagged clone panel, flow cytometry (AID 504473);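 further: median GFP fluorescence of the cells measured by high-throughput flow cytometry; test concentration not given here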
# Settings: S. cerevisiae GFP-tagged strains, 3 h
Activity calls are given as the source filed them.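 Rule for the calls: active = GFP ratio to DMSO above 1.5 or below 0.66; inactive = the rest.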
Reported Property: GFP ratio to DMSO

# Compound Structure, Test Target, Reported Property, Measured
data = [
    ("CO[C@H]1C[C@@H]2CC[C@@H](C)[C@@](O)(O2)C(=O)C(=O)N2CCCC[C@H]2C(=O)O[C@H]([C@H](C)C[C@@H]2CC[C@@H](O)[C@H](OC)C2)CC(=O)[C@H](C)/C=C(\\C)[C@@H](O)[C@@H](OC)C(=O)[C@H](C)C[C@H](C)/C=C/C=C/C=C/1C", "YKL119C", "GFP ratio to DMSO", "1.03 (inactive)"),
    ("CNc1nc(N)c([N+](=O)[O-])c(Nc2ccccc2OC)n1", "YKL119C", "GFP ratio to DMSO", "0.774 (inactive)"),
    ("CNc1nc(N)c([N+](=O)[O-])c(Nc2ccccc2)n1", "YKL119C", "GFP ratio to DMSO", "0.959 (inactive)"),
    ("CNc1nc(N)c([N+](=O)[O-])c(Nc2cccc(Cl)c2)n1", "YKL119C", "GFP ratio to DMSO", "0.951 (inactive)"),
    ("CNc1nc(N)c([N+](=O)[O-])c(Nc2cccc(F)c2)n1", "YKL119C", "GFP ratio to DMSO", "0.959 (inactive)"),
]

###

# Test system: YIL043C
# Test: TOR pathway GFP reporter clone modulation in yeast – S. cerevisiae, GFP-tagged clone panel, flow cytometry (AID 504473);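 further: median GFP fluorescence of the cells measured by high-throughput flow cytometry; test concentration not given here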
# Settings: S. cerevisiae GFP-tagged strains, 3 h
Activity calls are given as the source filed them.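 The calls were made as follows: active = GFP ratio to DMSO above 1.5 or below 0.66; inactive = the rest.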
Listing: GFP ratio to DMSO of selected molecules

# Compound Structure, GFP ratio to DMSO
rows = [
    ("CNc1nc(N)c([N+](=O)[O-])c(Nc2cccc(F)c2)n1", "1.04 (inactive)"),
    ("CO[C@H]1C[C@@H]2CC[C@@H](C)[C@@](O)(O2)C(=O)C(=O)N2CCCC[C@H]2C(=O)O[C@H]([C@H](C)C[C@@H]2CC[C@@H](O)[C@H](OC)C2)CC(=O)[C@H](C)/C=C(\\C)[C@@H](O)[C@@H](OC)C(=O)[C@H](C)C[C@H](C)/C=C/C=C/C=C/1C", "0.996 (inactive)"),
    ("CNc1nc(N)c([N+](=O)[O-])c(Nc2cccc(Cl)c2)n1", "1 (inactive)"),
    ("CNc1nc(N)c([N+](=O)[O-])c(Nc2ccccc2)n1", "1.02 (inactive)"),
    ("CNc1nc(N)c([N+](=O)[O-])c(Nc2ccccc2OC)n1", "0.829 (inactive)"),
]
